# Tested on: OVCAR-3
# assay.details: NCI tumour cell line growth inhibition, 48 h
The source made the active and inactive calls. Cut-off read from the data, not from the text of the source: active = GI50 up to about 1.1 µM and inactive = higher. Peptide text beside a SMILES is read from it. * marks the point of attachment. Cbz = O=C(OCc1ccccc1)*; Boc = CC(C)(C)OC(=O)*; OBn = c1ccc(CO*)cc1
The following compounds are listed with their measured GI50 values.
assay.metric: GI50

compound	assay.metric	endpoint.value
COC(=O)C(CCCCNC(=O)OCc1ccccc1)NC(=O)C(CCC(=O)OCc1ccccc1)NC(=O)OC(C)(C)C (configuration not stated) (Boc-Glu(OBn)-Lys(Cbz)-OMe; configuration not given here)	GI50	73.1 µM (inactive)
Cc1cc2c(C)cc(=O)[nH]c2cc1N	GI50	> 100 µM (inactive)
CN(C)c1ccc(/C=C/c2ccc(/C=C/c3ccc(N(C)C)cc3)cc2)cc1	GI50	> 100 µM (inactive)
O=c1oc(C(C(F)(F)F)C(F)(F)F)nc2ccccc12	GI50	> 100 µM (inactive)
CN(C)CCN(C)CCC(=O)/C=C/c1ccccc1	GI50	27.7 µM (inactive)
CCN(CC)CCNc1ccc2ncn3c4ccccc4c(=O)c1c23	GI50	12.8 µM (inactive)
CC(C)(Oc1ccc(C(=O)c2ccc(Cl)cc2)cc1Cl)C(=O)Nc1c(Cl)cccc1Cl	GI50	> 100 µM (inactive)
CC(=O)OCC1OC(n2c(-c3ccc(C)cc3)cc(-c3ccccc3)c(C#N)c2=O)C(OC(C)=O)C(OC(C)=O)C1OC(C)=O (configuration not stated)	GI50	> 100 µM (inactive)
COc1ccc(OC)c2c(C)ccnc12	GI50	2.99 µM (inactive)
O=C(O)CCCSc1ccccc1	GI50	> 100 µM (inactive)
COc1ccccc1C(=O)c1ccc2ccccc2c1	GI50	9.4 µM (inactive)
O=C(CCN1CCCCC1)Nc1ccc2c(c1)C(=O)c1ccc(NC(=O)CCN3CCCCC3)cc1C2=O	GI50	8.11 µM (inactive)
CN(C)C(=S)NC(=S)Nc1ccc2ccccc2c1	GI50	14.4 µM (inactive)
O=CN(O)CC(=O)O	GI50	> 100 µM (inactive)
CC(=O)NC1C(OCc2ccccc2)OC(CO)C(O)C1OCC(=O)NC(C)C(=O)NC(CCC(=O)NCCCCNc1ccc([N+](=O)[O-])c2[nH]c3ccccc3c(=O)c12)C(N)=O (configuration not stated)	GI50	> 100 µM (inactive)
CCOc1ccc(/C=C2\N=C(c3ccccc3)OC2=O)cc1	GI50	> 100 µM (inactive)
O=C(OCc1ccccc1[N+](=O)[O-])N1c2ccccc2[C@@]23O[C@]24CCC[C@H]3C#C/C=C\C#C[C@H]14	GI50	> 100 µM (inactive)
